The reported measurements were obtained from patent US7407939.

assayed.target: protein kinase A, catalytic subunit
run.description: cell-based or functional assay
Where no end group is shown, it is not given here. [ ]: non-standard residue; d: D form. The star is where a group is joined. SO2‑IQ = 5-aminoethylsulfoneamide isoquinoline, O=S(=O)(NCCN*)c1cccc2cnccc12; Nle = CCCC[C@H](N)C(=O)O; Orn = NCCC[C@H](N)C(=O)O
# PKA IC50 per entry
readout.name: PKA IC50 (nM)

# binder, units, value.measured
data = [
    ("RPR[Orn]E(SO2‑IQ)SF [PTR 6132]", "nM", 12),
    ("RPR[Nle]E(SO2‑IQ)SF [PTR 6128]", "nM", 100),
    ("RPRTD(SO2‑IQ)SF [PTR 6130]", "nM", 53),
]
